- TEST PROTOCOL: Blood plasma levels in human patients
- Format: in vivo
- CONDITION CONTEXT: plasma, oral, 5 mg/kg bw, monepantel as Zolvix 5 mg/kg bw daily, 0.5 h, average of patients, read-out: Blood plasma level of monepantel, Average
PARAMETER MEASURED: concentration at 0.5 h (ng/mL)
Provide only the numeric value, understood in ng/mL.

stdin: I am curious: what concentration at 0.5 h value has been reported for C[C@](C#N)(COc1cc(C#N)ccc1C(F)(F)F)NC(=O)c1ccc(SC(F)(F)F)cc1 [MPL] ?
stdout: 24.3

---

- TEST PROTOCOL: Blood plasma levels in human patients
- Assay type: in vivo
- CONDITION CONTEXT: plasma, oral, 5 mg/kg bw, monepantel as Zolvix 5 mg/kg bw daily, 8 h, individual patients, read-out: Blood plasma level of monepantel sulfone
PARAMETER MEASURED: concentration at 8 h
Returns: string containing the number followed by the unit.

stdin: Endpoint output: concentration at 8 h of C[C@](C#N)(COc1cc(C#N)ccc1C(F)(F)F)NC(=O)c1ccc(S(=O)(=O)C(F)(F)F)cc1 . Value?
stdout: 565 ng/mL

---

- TEST PROTOCOL: Blood plasma levels in human patients
- Assay type: in vivo
- CONDITION CONTEXT: plasma, oral, 5 mg/kg bw, monepantel as Zolvix 5 mg/kg bw daily, 8 h, average of patients, read-out: Blood plasma level of monepantel sulfone, Average
PARAMETER MEASURED: concentration at 8 h
# output: number + unit

stdin: So what does the record say about concentration at 8 h for C[C@](C#N)(COc1cc(C#N)ccc1C(F)(F)F)NC(=O)c1ccc(S(=O)(=O)C(F)(F)F)cc1 [MPLS, monepantel sulfone] ?
stdout: 572 ng/mL

---

- TEST PROTOCOL: Blood plasma levels in human patients
- Format: in vivo
- CONDITION CONTEXT: plasma, oral, 5 mg/kg bw, monepantel as Zolvix 5 mg/kg bw daily, 0.25 h, average of patients, read-out: Blood plasma level of monepantel, Average
PARAMETER MEASURED: concentration at 0.25 h

stdin: Item C[C@](C#N)(COc1cc(C#N)ccc1C(F)(F)F)NC(=O)c1ccc(SC(F)(F)F)cc1 has what recorded concentration at 0.25 h?
stdout: 4.7 ng/mL

---

- TEST PROTOCOL: Blood plasma levels in human patients
- Format: in vivo
- CONDITION CONTEXT: plasma, oral, 5 mg/kg bw, monepantel as Zolvix 5 mg/kg bw daily, 1 h, average of patients, read-out: Blood plasma level of monepantel, Average
PARAMETER MEASURED: concentration at 1 h

stdin: Quick check: concentration at 1 h of C[C@](C#N)(COc1cc(C#N)ccc1C(F)(F)F)NC(=O)c1ccc(SC(F)(F)F)cc1 [MPL] ?
stdout: 64.8 ng/mL

---

- TEST PROTOCOL: Blood plasma levels in human patients
- Assay type: in vivo
- CONDITION CONTEXT: plasma, oral, 5 mg/kg bw, monepantel as Zolvix 5 mg/kg bw daily, 0.5 h, average of patients, read-out: Blood plasma level of monepantel sulfone, Average
PARAMETER MEASURED: concentration at 0.5 h (ng/mL)
Give your result in ng/mL as a bare value.

stdin: Would you kindly share the measured concentration at 0.5 h for C[C@](C#N)(COc1cc(C#N)ccc1C(F)(F)F)NC(=O)c1ccc(S(=O)(=O)C(F)(F)F)cc1 [MPLS, monepantel sulfone] ?
stdout: 22.8
